TGT: CST (CTC1-STN1-TEN1) (human, UniProt Q2NKJ3;Q9H668;Q86WV5 1-1217;1-368;1-123)
Sequence (Q2NKJ3 whole entry, chain 1 of 3): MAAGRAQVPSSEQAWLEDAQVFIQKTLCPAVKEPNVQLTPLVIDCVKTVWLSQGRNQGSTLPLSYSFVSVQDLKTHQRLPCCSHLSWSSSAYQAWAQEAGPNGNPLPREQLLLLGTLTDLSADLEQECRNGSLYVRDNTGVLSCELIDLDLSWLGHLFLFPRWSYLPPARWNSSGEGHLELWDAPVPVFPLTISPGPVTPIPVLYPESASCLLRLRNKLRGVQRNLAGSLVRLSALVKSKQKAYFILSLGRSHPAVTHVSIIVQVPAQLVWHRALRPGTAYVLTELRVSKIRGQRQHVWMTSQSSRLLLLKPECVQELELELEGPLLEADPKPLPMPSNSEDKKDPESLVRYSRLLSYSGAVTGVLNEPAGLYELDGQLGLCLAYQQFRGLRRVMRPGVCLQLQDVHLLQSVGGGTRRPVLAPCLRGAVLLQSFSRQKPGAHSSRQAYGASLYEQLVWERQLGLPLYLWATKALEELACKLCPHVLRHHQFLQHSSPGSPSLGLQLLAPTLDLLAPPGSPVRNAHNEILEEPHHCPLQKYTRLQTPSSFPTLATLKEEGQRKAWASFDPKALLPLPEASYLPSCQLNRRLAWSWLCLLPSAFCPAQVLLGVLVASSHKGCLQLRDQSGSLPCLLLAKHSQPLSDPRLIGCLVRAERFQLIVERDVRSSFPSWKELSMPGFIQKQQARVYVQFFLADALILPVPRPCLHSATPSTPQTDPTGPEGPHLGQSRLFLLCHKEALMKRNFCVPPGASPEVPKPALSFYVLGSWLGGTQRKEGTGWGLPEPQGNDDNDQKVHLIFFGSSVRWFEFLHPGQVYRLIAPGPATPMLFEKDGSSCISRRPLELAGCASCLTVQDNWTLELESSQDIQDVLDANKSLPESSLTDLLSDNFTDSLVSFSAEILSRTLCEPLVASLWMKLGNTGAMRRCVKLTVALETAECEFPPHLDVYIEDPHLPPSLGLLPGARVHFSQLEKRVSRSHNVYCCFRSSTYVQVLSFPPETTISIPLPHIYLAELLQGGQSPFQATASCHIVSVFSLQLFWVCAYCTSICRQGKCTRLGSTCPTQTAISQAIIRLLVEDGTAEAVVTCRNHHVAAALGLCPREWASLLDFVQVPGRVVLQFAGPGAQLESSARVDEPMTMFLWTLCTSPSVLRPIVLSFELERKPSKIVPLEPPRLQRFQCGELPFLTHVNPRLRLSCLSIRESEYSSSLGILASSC
Sequence (Q9H668 whole entry, chain 2 of 3): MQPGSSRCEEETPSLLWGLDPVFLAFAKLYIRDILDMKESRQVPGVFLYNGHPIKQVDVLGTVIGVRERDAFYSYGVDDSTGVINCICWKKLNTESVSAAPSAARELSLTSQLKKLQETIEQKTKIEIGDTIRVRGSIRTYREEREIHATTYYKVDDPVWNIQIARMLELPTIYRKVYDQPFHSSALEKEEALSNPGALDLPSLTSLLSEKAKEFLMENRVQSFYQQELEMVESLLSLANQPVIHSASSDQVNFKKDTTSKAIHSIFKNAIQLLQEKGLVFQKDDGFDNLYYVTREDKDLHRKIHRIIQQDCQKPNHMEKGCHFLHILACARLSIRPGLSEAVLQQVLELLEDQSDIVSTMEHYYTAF
Sequence (Q86WV5 whole entry, chain 3 of 3): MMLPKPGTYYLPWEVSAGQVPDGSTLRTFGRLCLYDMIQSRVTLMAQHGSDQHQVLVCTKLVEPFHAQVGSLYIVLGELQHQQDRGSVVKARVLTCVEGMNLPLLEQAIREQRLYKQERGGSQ
PROTOCOL_TEXT: fluorescence anisotropy; 200 mM KCl; FA: 200 mM NaCl, KCl or LiCl, 20 mM HEPES pH 7.4, 1 mM DTT, 22-25 C, 375 or 750 pM oligo, Kd,app +/- SEM; EMSA: 20 mM HEPES pH 7.4, 200 mM KCl, 1 nM 32P oligo
CONDITION_DETAILS: protein: recombinant; tags: 2xFLAG N-term on CTC1; 6xHis N-term on STN1 and TEN1; copies: 1;1;1; label: 5' fluorescein; parallel G4 in KCl (predominantly unimolecular); linear in LiCl

{"BINDER": "CGGGGCGGGCCTTGGGCGGGGT (structured_DNA) [2M27]", "UNIT_ABBREVIATION": "nM", "Kd": 13.3}
